# assayed.target: PRC2-AEBP2 mt5 (Homo sapiens, UniProt Q15910;Q15022;O75530;Q09028;Q6ZN18 1-746;1-739;1-441;1-425;1-517, Y133A;T144A;F145A;Y153A;Y308A)
# experiment.notes: fluorescence anisotropy
pKd: −log10 of the molar value.
metric: pKd

In [3]: df
Out[3]:
                                     binder  metric  data_value
0  UUAGGGUUAGGGUUAGGGUUAGGG (structured_RNA) [G4 24 RNA]     pKd        7.03
